Tested on: COLO 205 colon
Assay: NCI-60 one-dose screen, 48 h (100 = growth as untreated, 0 = no growth, -100 = all killed)
Details: 10 µM unless noted
Compounds without any hit were thinned out: in the full panel of roughly 83,000, 20% have a hit.
In this section, each of the compounds is paired with its reported growth.
The response must be a number in % with no trailing unit.

Consider the worked cases shown below.
INSERT INTO assay_data (compound, target_under_test, reported_value) VALUES
  ('O=S(=O)(NCCNc1nccc(-n2cnc3ccccc32)n1)c1ccc(Br)cc1', 'COLO 205 colon', 107),
  ('COc1ccc(/C=C(/C)c2ccc3ccc(OC)cc3[o+]2)c(O)c1', 'COLO 205 colon', 115),
  ('CC1(C)CC[C@]2(C(=O)N3CCOCC3)CC[C@]3(C)C(=CC[C@@H]4[C@@]5(C)C/C(=C/c6ccccn6)C(=O)C(C)(C)[C@@H]5CC[C@]43C)[C@@H]2C1', 'COLO 205 colon', 74.2),
  ('C=C(C=O)[C@@H]1CC[C@]2(CO)CC[C@]3(C)[C@H](CC[C@@H]4[C@@]5(C)CCCNC(C)(C)[C@@H]5CC[C@]43C)[C@@H]12', 'COLO 205 colon', 77.3),
  ('Cc1ccc(-n2cc(/C=N/NC(=O)c3nc(N)n[nH]3)c(-c3ccc(S(C)(=O)=O)cc3)n2)cc1', 'COLO 205 colon', 105);

# input compound: "Nc1ncc(-c2ccc3ncnc(Nc4cccc(Cl)c4F)c3c2)cn1" ; wanted: its growth
86.4

Query: growth; subject: "COc1cc(OC)cc(C(=O)Nc2sc3c(c2C(N)=O)CCC(=O)C3)c1"
47.2

What growth value was documented for this compound, "CNC(=O)c1cc(-c2ccc(NC(=S)Nc3cc(C(F)(F)F)cc(C(F)(F)F)c3)cc2)nc2cccnc12" ?
110

====

System: UACC-62 melanoma
Assay: NCI-60 one-dose screen, 48 h
Conditions: 10 µM unless noted
Compounds without any hit were thinned out: in the full panel of roughly 83,000, 20% have a hit. Activity calls are given as the source filed them. Rule for the calls: active = growth percent below 10; inactive = the rest.
Response enum: 1 = active, -1 = inactive

INSERT INTO assay_data (compound, class_assignment) VALUES
  ('O=C(Nc1ccc(Br)cc1)Nc1nc2ccc([N+](=O)[O-])cc2s1', 1);

Please share the test call associated with "CC(C)(C)c1ccc(-c2nnc(-c3nc4ccccc4nc3Cl)o2)cc1" .
-1

Assay result, entry "O=C(O)c1ccc(-n2cc(CNc3cc(F)c(F)c(F)c3)c(-c3ccc(F)cc3)n2)cc1" — outcome?
-1

I would be grateful if you could indicate the recorded call for COc1cc2nc(Cl)nc(Nc3cccc(C4=Nc5c(N)nc(N)nc5NC(c5ccccc5)C4)c3)c2cc1OC (centres undefined) .
-1

So what was the verdict on "C=C(C=O)[C@@H]1CC[C@]2(C)[C@H](C(=O)C=C3[C@H]4C[C@](C)(C(=O)OC)CC[C@]4(C)CC[C@]32C)[C@@]1(C)CCC#N" in this test?
1

Test call for this compound, please: CCNC(=O)N1CCc2cc(OC)c(OCCc3ccc(OC)cc3)cc2C1c1ccc(OC)cc1C (centres undefined)
-1

What is the recorded call for this compound in the test? "CCCCCCCn1cc2c(N[C@H](C)c3ccccc3)ncnc2n1"
-1

Entry CCO/C=N/C1=C(C#N)C(c2ccc(OC)cc2)c2sc3c(CC)cccc3c2O1 (centres undefined) : call = ?
-1

Please let me know the test result on file for "CC(=O)c1ccc(Nc2nc(SCC(C)C)nc(-c3ccc(F)cc3)c2C#N)cc1" .
-1

====

System: OVCAR-8 ovarian
Experiment: NCI-60 one-dose screen, 48 h (100 = growth as untreated, 0 = no growth, -100 = all killed)
Conditions: 10 µM unless noted
About 83,000 compounds went through this panel and 20% of them were active in at least one assay; those are over-represented in the sample as a whole.
Items are presented alongside their recorded growth.
Give the value in % but do not write % after it.

INSERT INTO results (compound, target_under_test, reported_value) VALUES
  ('Oc1[nH]c2ccccc2c1Nn1c(N=N/C=c2/ccc3c(c2)C=NN=3)n[nH]c1=S', 'OVCAR-8 ovarian', 105),
  ('CC[C@@H](CO)Nc1ccc2ncc(C#Cc3cncc(C(=O)Nc4ccc(CN5CCN(C)CC5)c(C(F)(F)F)c4)c3)n2n1', 'OVCAR-8 ovarian', -57.6),
  ('CCCCCc1ccc(S(=O)(=O)Nc2cccc(-c3csc(NC(=O)CN4CCN(C)CC4)n3)c2)cc1', 'OVCAR-8 ovarian', 95.9),
  ('COc1cc(/C=C2\C(=O)Nc3cc(Cl)ccc32)ccc1OCc1ccc(F)cc1', 'OVCAR-8 ovarian', 98.7),
  ('COc1ccc(-n2c(/C=C3\C(=O)Nc4ccccc43)ccc2CO)cc1', 'OVCAR-8 ovarian', 102),
  ('COc1ccc(COc2ccc(/C=C3\C(=O)Nc4ccccc43)cc2OC)cc1', 'OVCAR-8 ovarian', 101);

# next compound below
Item "COC[C@]12CCC(C)(C)C[C@H]1C1=CC[C@@H]3[C@@]4(C)CCCNC(C)(C)[C@@H]4CC[C@@]3(C)[C@]1(C)CC2" has what recorded growth?
52.2

====

Test system: NCI/ADR-RES ovarian
Experiment: NCI-60 one-dose screen, 48 h (100 = growth as untreated, 0 = no growth, -100 = all killed)
Details: 10 µM unless noted
About 83,000 compounds went through this panel and 20% of them were active in at least one assay; those are over-represented in the sample as a whole.
Could you please mark label 1 for values of growth below 80% and label 0 for values at or above it?

Solved cases below.
INSERT INTO assay_data (compound, target_under_test, class_assignment) VALUES
  ('COc1cc(Nc2c(C#N)cnn3cc(-c4cnn(CC(C)(C)O)c4)cc23)ccc1Cl', 'NCI/ADR-RES ovarian', 'label 1'),
  ('CCO/C=N/C1=C(C#N)C(c2ccc(OC)cc2)c2sc3c(C)cccc3c2O1 (stereo not given)', 'NCI/ADR-RES ovarian', 'label 1'),
  ('COc1cc2oc(-c3cccc(N)c3)cc(=O)c2c(OC)c1OC', 'NCI/ADR-RES ovarian', 'label 0');

Just wondering, is growth of "COc1cc(Cn2cc3c(c2)-c2onc(CN4CCCC4)c2CC3)cc(OC)c1OC" below 80%?
label 0

====

Tested on: HCT-116 colon
Experiment: NCI-60 one-dose screen, 48 h (100 = growth as untreated, 0 = no growth, -100 = all killed)
Conditions: 10 µM unless noted
Experimental: Growth inhibition of the HCT-116 human tumor cell line is measured as a screen for anti-cancer activity. Cells are grown in 96 well plates and exposed to the test compound for 48 hours. Compounds are tested at a single concentration, which is 10^-5 M for most compounds. The reported endpoint is percent growth (GI% or GIPRCNT), where numbers from 0 - 100% represent growth inhibition, and numbers from -100% - 0 represent cell death. For example, a value of 40 represents 60% growth inhibition. […]
This is part of a sample that, as a whole, favours compounds with a hit. Of some 83,000 tested, about 20% had one in any assay.
Assay readout: growth (%)
Only the number, expressed in %, is required.

Observe how each entry below is paired with its result.
INSERT INTO results (molecule, target_under_test, reported_value) VALUES
  ('NC(N)=Nc1ccc(Oc2cccc(Oc3ccc(Cl)c(C(F)(F)F)c3)c2)cn1', 'HCT-116 colon', -91.5),
  ('COc1ccc2c(c1)c(-c1cc(N)n3nc(-c4cn(C)c5ccc(OC)cc45)cc3n1)cn2C', 'HCT-116 colon', -4.19),
  ('O=C1C(c2ccccc2)=C(N2CCc3ccccc32)OC1(Cl)Cl', 'HCT-116 colon', 2.36);

Dear colleague, I am looking for the recorded growth of the following molecule: "C#C[C@]1(O)CC[C@H]2[C@@H]3CC=C4c5sc(-c6cccc(O)c6)nc5CC[C@]4(C)[C@H]3CC[C@@]21C"
-37.6

Tell me the measured growth of "CNC(=O)c1cc(Oc2ccc3nc(NC(=O)c4cc(N5CCOCC5)cc(C(F)(F)F)c4)sc3c2)ccn1" , please.
63.1

====

System: COLO 205 colon
Assay: NCI-60 one-dose screen, 48 h (100 = growth as untreated, 0 = no growth, -100 = all killed)
Conditions: 10 µM unless noted
Compounds without any hit were thinned out: in the full panel of roughly 83,000, 20% have a hit.
Assay readout: growth (%)
Reply numerically in %, unit not repeated.

A selection of reference data follows.
INSERT INTO measurements (compound, reported_value) VALUES
  ('NC/C(=C/F)COc1ccc2nc(NCc3cccnc3)oc2c1', 111),
  ('C#C[C@]1(O)CC[C@H]2[C@@H]3CC=C4c5sc(-c6ccc7c(c6)OCO7)nc5CC[C@]4(C)[C@H]3CC[C@@]21C', 51.9),
  ('CCO/C=N/C1=C(C#N)C(c2ccc(OC)cc2)c2sc3c(C)cccc3c2O1 (stereo not drawn)', 16.1);

Query the reported growth for COLO 205 colon; item: O=C(NNc1nc2cc(F)ccc2n2c(CN3CC4CNCC4C3)ccc12)c1cnccn1 (stereo not drawn)
18.3

Under COLO 205 colon: growth value of "C#Cc1nc(C(=O)NCCC(=O)Nc2ccc(NC(=O)c3ccc(/C=C/C(=O)c4nccn4C)cc3)cc2)cs1" ?
56.1

Form: Entry = "N=c1c2cc(-c3ccccc3)oc2ncn1/N=C/c1ccc(Br)cc1" | System = COLO 205 colon | growth = ____
98.9

Request - read-out growth | tested on COLO 205 colon | compound "Nc1nc(Nc2ccccc2SSc2ccccc2Nc2nc(N)nc(-c3ccccc3)n2)nc(-c2ccccc2)n1"
115

Return growth measured with COLO 205 colon given this compound: "Cc1cc(C)cc(C(=O)Nc2cccc(C#Cc3cccc4[nH]nc(N)c34)c2)c1"
77.9

Tell me reported growth for CC1=CC(=O)C2=C(C)CC(OC(=O)CCc3ccccc3)[C@@H]3[C@H](OC(=O)[C@@H]3C)[C@@H]12 (stereo partly drawn) , tested with COLO 205 colon.
95.2

Request body: readout growth, system COLO 205 colon, query "Cc1ccc(C2=NN(C)C(=O)C3(CCCC3)C2)cc1" . Return the value.
115
